Test system: SN12C renal
Test: NCI-60 one-dose screen, 48 h
Details: 10 µM unless noted
Compounds without any hit were thinned out: in the full panel of roughly 83,000, 20% have a hit. Calls of active or inactive are those of the source. How the source made its calls: active means growth percent below 10; inactive means the rest.
Outcome codes: yes for active, no for inactive

{"columns": ["COMPOUND", "LABEL VALUE"],
 "data": [
  ["NCCc1ccc(OCc2ccccc2)c(OCc2ccccc2)c1", "no"],
  ["CC[n+]1c(-c2ccccc2)c2cc(N)ccc2c2ccc(N)cc21", "yes"],
  ["Cc1cc(N=Nc2ccccc2C)ccc1N", "no"],
  ["C[C@H]1CCC/C=C/[C@@H]2C[C@H](O)C[C@H]2[C@H](O)/C=C/C(=O)O1", "no"],
  ["Cc1c(N)nc([C@H](CC(N)=O)NC[C@H](N)C(N)=O)nc1C(=O)N[C@H](C(=O)N[C@H](C)[C@@H](O)[C@H](C)C(=O)N[C@H](C(=O)NCCc1nc(-c2nc(C(=O)NCCC[S+](C)C)cs2)cs1)[C@@H](C)O)C(OC1OC(CO)C(O)C(O)C1OC1OC(CO)C(O)C(OC(N)=O)C1O)c1cnc[nH]1 (stereo partly specified)", "no"],
  ["Cc1ccc(C(=O)OC(C(=O)O)C(OC(=O)c2ccc(C)cc2)C(=O)O)cc1 (stereo unspecified) (tested in a mixture with another compound)", "no"],
  ["CO[C@H](/C(C)=C/C=C/C(C)=C/c1coc(C)n1)[C@H](C)[C@H]1C[C@@H](O)[C@@]2(C)O[C@H]2/C=C/[C@@H](C)[C@@H]2C[C@@H](CC(=O)O2)C[C@H]2O[C@@H]2C(=O)O1", "no"],
  ["CC[C@](O)(C(=O)O)c1cc2n(c(=O)c1CO)Cc1cc3ccccc3nc1-2", "no"],
  ["CCC(=O)OC1CCn2c1nc1c2C(=O)C(C)=C(N2CC2)C1=O (stereo unspecified)", "yes"],
  ["COc1ccc(OC)c(/C=C/[N+](=O)[O-])c1", "no"],
  ["CC[C@@]1(O)C[C@H](OC2CC(N(C)C)C(O)C(C)O2)c2c(O)c3c(c(O)c2[C@H]1OC1CC(N(C)C)C(O)C(C)O1)C(=O)c1cccc(O)c1C3=O (stereo partly specified)", "no"]
]}

====

Test system: UACC-62 melanoma
Test: NCI-60 one-dose screen, 48 h (100 = growth as untreated, 0 = no growth, -100 = all killed)
Conditions: 10 µM
The panel holds about 83,000 compounds, 20% with a hit somewhere; the sample as a whole holds those more often.
// 0 strictly below 90% in growth; 1 otherwise

{"columns": ["COMPOUND", "LABEL VALUE"],
 "data": [
  ["CN1CCN(c2ccc([N+](=O)[O-])c3no[n+]([O-])c23)CC1", 0],
  ["COc1ccc(OC)c(/C=C/[N+](=O)[O-])c1", 0],
  ["NCCc1ccc(OCc2ccccc2)c(OCc2ccccc2)c1", 1],
  ["CC1=C2C(=O)[C@H]3[C@@H](CC=C4C[C@@H](O)CC[C@@]43C)[C@@H]2CC[C@]12O[C@@H]1C[C@H](C)CN[C@H]1[C@H]2C", 1],
  ["C[C@H]1CCC/C=C/[C@@H]2C[C@H](O)C[C@H]2[C@H](O)/C=C/C(=O)O1", 0]
]}
